The following compounds are listed with their measured activity (%) at 10 μM values.
TESTED TARGET: human M1 receptor (hCHRM1) (Homo sapiens, UniProt P11229)
Construct: expressed in transfected cells
Sequence (P11229 1-460): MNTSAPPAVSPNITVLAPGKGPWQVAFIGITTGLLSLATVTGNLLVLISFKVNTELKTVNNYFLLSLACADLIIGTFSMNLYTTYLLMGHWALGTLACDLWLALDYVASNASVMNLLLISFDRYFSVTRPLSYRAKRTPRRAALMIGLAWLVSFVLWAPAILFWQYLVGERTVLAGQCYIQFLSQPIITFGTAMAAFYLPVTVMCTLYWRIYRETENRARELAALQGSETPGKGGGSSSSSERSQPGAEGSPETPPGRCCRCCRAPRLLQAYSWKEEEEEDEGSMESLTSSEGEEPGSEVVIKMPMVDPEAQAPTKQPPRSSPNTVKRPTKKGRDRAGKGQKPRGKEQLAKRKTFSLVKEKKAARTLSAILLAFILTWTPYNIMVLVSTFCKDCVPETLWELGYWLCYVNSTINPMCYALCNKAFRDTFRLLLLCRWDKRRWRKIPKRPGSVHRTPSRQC
ASSAY TEXT: Measurement of M1 receptor positive allosteric modulator (M1PAM) activity, calcium fluorescence in CHO-K1 cells
Assay type: cell-based
RECORDED CONDITIONS: 10 μM test compound with acetylcholine at EC20; 100% = acetylcholine 1 μM, 0% = DMSO
State the answer as a number, implicitly in %.

Observe how each entry below is paired with its result.
CC(F)(F)COc1nccc2c1C(=O)N(Cc1ccc(-c3cnn(CC(F)F)c3)cc1)C2
100
CCn1cc(-c2ccc(CN3Cc4ncnc(OCC(C)(F)F)c4C3=O)c(F)c2)cn1
103
CCn1cc(-c2ccc(CN3Cc4ncnc(OCC(C)(C)F)c4C3=O)c(F)c2)cn1
86
Cn1cc(-c2ccc(CN3Cc4ccnc(OCC(C)(F)F)c4C3=O)c(F)c2)cn1
91
CCC(F)(F)COc1nccc2c1C(=O)N(Cc1ccc(-c3cnn(CC(F)(F)F)c3)cc1F)C2
91
Cc1nn(C)cc1-c1ccc(CN2Cc3ncnc(OCC(F)F)c3C2=O)c(F)c1
96

Q) Query (compound): Cc1nn(C)cc1-c1ccc(CN2Cc3ncnc(OCC(C)(C)F)c3C2=O)c(F)c1 ; field requested: activity (%) at 10 μM
A) 90

Q) Please give the measured activity (%) at 10 μM for this compound: CCn1cc(-c2ccc(CN3Cc4ncnc(OCC(C)(F)F)c4C3=O)cc2)cn1
A) 91

Q) Look up activity (%) at 10 μM for this compound: Cn1cc(-c2ccc(CN3Cc4ccnc(OCC(F)F)c4C3=O)c(F)c2)nn1
A) 98

Q) // returns reported activity (%) at 10 μM for input Cn1cc(-c2ccc(CN3Cc4ncnc(OCC(C)(F)F)c4C3=O)cc2)cn1
A) 95

Q) Endpoint output: activity (%) at 10 μM of Cc1cc(-c2ccc(CN3Cc4ncnc(OCC(F)(F)F)c4C3=O)cc2)ccn1 . Value?
A) 87
